protocol.description: In vivo pharmacokinetics in Beagle dogs
particulars: both sexes, dog; beagle dogs, individual intravenous dose 13 mg/kg, plasma; read-out: MRT (mean retention time of drugs)
measured.metric: MRT (h)

compound	reported.value
Cc1ncc([N+](=O)[O-])n1CC(O)CCl (racemic) [racemic ornidazole, ornidazole]	8.01

====

protocol.description: Acute toxicology test, LD50 in mice (Bliss method)
Type: in vivo
particulars: both sexes, Kunming, mouse, in vivo, ip, intraperitoneal injection, read-out: 95% confidence interval (CI) of LD50

compound	LD50 at 14 days
Cc1ncc([N+](=O)[O-])n1CC(O)CCl (racemic) [racemic ornidazole, ornidazole]	1030 to 1210 mg/kg

====

protocol.description: In vivo pharmacokinetics in Beagle dogs
particulars: both sexes, dog; beagle dogs, individual intravenous dose 13 mg/kg, plasma; read-out: AUC0-t (area under curve)
Protocol: The clinical dose of ornidazole is 500 mg for human. By calculating, based on body surface area, the pharmacokinetic experimental dose in Beagle dogs was 13 mg/kg in vivo. Six adult beagle dogs (half males and half females, body weight of 9˜11.5 kg) were randomly divided into three groups. […] Plasma concentration of drug was determined by HPLC. […]

compound	output.unit	AUC(0-t)
Cc1ncc([N+](=O)[O-])n1CC(O)CCl (racemic) [racemic ornidazole, ornidazole]	ng·h/mL	76700

====

protocol.description: Acute toxicology test, LD50 in mice (Bliss method)
Assay type: in vivo
particulars: both sexes, Kunming, mouse, in vivo, oral gavage, read-out: 95% confidence interval (CI) of LD50
measured.metric: LD50 at 14 days

molecule	reported.value
Cc1ncc([N+](=O)[O-])n1CC(O)CCl (racemic) [racemic ornidazole, ornidazole]	674 to 878 mg/kg
